measured on: T1, ANK domain of Notch1 intracellular domain (N1ICD-ANK) (UniProt P46531 1927-2122)
T1 construct: Notch1, ankyrin repeat (ANK) domain of the intracellular domain; the numbers fit human NOTCH1 (2555 aa); also called ANK repeat
assay protocol: SPR; BIAcore T200 (GE Healthcare); dissociation constant calculated with BIA-evaluation software; which partner was immobilised is not stated
test context: both partners purified
pKd: −log10 of the molar value. Bridge positions count the residues as written; N and C are the ends. Square brackets hold non-standard residues; d marks the D form. Ends that are not written are not given here. S5 = C=CCCC[C@](C)(N)C(=O)O
Classify by measured pKd: T if it is equal to or exceeds 7, F if it is smaller.

Would you say YAKRIFYQLLSKQA (N1DARP residues 20-33 with E32Q and position 14 of the peptide (Leu33) to Ala; source: synthetic peptide (Chinese Peptide, Inc., Hangzhou; > 98% purity)) [mAH2-14, alanine mutant of mAH2 (Leu33 to Ala)] shows pKd at minimum 7? F

Also YAKRIFYQLLSKEL (N1DARP, 41-aa microprotein encoded by LINC00261 (ORF12); source: synthetic peptide (Chinese Peptide, Inc., Hangzhou; > 98% purity); 'purified AH2 peptide') [AH2, alpha-helical peptide 2 of N1DARP] , if possible. T

Also YAARIFYQLLSKQL (N1DARP residues 20-33 with E32Q and position 3 of the peptide (K22) to Ala; source: synthetic peptide (Chinese Peptide, Inc., Hangzhou; > 98% purity)) [mAH2-3, alanine mutant of mAH2] , if possible. T

Also YAKRAFYQLLSKQL (N1DARP residues 20-33 with E32Q and position 5 of the peptide (I24) to Ala; source: synthetic peptide (Chinese Peptide, Inc., Hangzhou; > 98% purity)) [mAH2-5, alanine mutant of mAH2] , if possible. T

Also [S5]AKRIFY[S5]LLSKQL (staple 1-8) [SAH-mAH2-4, stapled alpha-helix of mAH2] , if possible. T

Source: paper PMC10504324
